Ref: ChEMBL document CHEMBL4257081

Molecular target: Indoleamine 2,3-dioxygenase 1 (Homo sapiens)
Sequence (P14902 whole entry, the tested form may be a part): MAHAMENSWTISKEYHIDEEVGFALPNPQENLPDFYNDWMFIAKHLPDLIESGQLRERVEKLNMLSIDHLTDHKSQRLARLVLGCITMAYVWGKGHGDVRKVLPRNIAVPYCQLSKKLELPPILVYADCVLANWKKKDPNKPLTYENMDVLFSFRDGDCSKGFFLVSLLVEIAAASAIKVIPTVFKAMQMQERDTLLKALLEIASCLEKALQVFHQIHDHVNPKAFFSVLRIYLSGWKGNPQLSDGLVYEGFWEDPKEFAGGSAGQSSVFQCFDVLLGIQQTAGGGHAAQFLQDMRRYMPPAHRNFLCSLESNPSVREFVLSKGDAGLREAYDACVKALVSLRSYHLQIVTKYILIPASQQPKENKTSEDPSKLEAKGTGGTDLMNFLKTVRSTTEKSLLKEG
Test: Inhibition of recombinant human N-terminal His-tagged IDO1 (1 to 403 residues) expressed in Escherichia coli assessed as reduction in kynurenine formation using tryptophan as substrate measured by LC/MS/MS analysis
pIC50: −log10 of the molar value.
measurement-name: pIC50

[[record]]
structure_string = "Nc1sc2ccccc2c1Nc1ccccc1"
result = "6.00 to 6.70"

[[record]]
structure_string = "CCOC(=O)Nc1oc2cnccc2c1Nc1ccc(F)c(Cl)c1"
result = "< 6.00"

[[record]]
structure_string = "Nc1oc2c(-c3ccccc3)nc(Oc3ccccc3)cc2c1Nc1ccc(F)c(Cl)c1"
result = "< 6.00"


Shifting focus to the compound that follows.
Look up pIC50 with Indoleamine 2,3-dioxygenase 1 (Homo sapiens) for this compound: Nc1oc2cnccc2c1Nc1ccc(F)c(F)c1
6.00 to 6.70
